// reported MIC per item
- Tested on: Pseudomonas aeruginosa
- test.details: Antibacterial activity against Pseudomonas aeruginosa ATCC 27853 assessed as reduction in bacterial growth incubated for 24 hrs by CLSI broth microdilution method
- Type: functional
- study.conditions: Pseudomonas aeruginosa, ATCC 27853, 24 h, read-out: MIC
Number only, in µg/mL; omit the unit.

Illustrative cases are given below, each with its answer.
- compound: "[H]/N=C(\\N/C(=N/[H])NCCCCCCNC(=N)NC(=N)Nc1ccc(Cl)cc1)Nc1ccc(Cl)cc1 [CHLORHEXIDINE]"
  measured.number: 4
- compound: "CCCCCCCCCCCCCC(=O)NCCC[N+](C)(C)Cc1ccccc1.[Cl-] [MIRAMISTIN]"
  measured.number: 64

Kindly review the next compound as well.
For this compound ( CCCCCCCCCC[N+](C)(C)CCCNC(=O)COc1c2cc(C(C)(C)C)cc1Sc1cc(C(C)(C)C)cc(c1OCC(=O)NCCC[N+](C)(C)CCCCCCCCCC)Sc1cc(C(C)(C)C)cc(c1OCC(=O)NCCC[N+](C)(C)CCCCCCCCCC)Sc1cc(C(C)(C)C)cc(c1OCC(=O)NCCC[N+](C)(C)CCCCCCCCCC)S2.[Cl-].[Cl-].[Cl-].[Cl-] ), measured MIC is 64

###

- Test system: Escherichia coli
- test.details: Antibacterial activity against Escherichia coli ATCC 25922 assessed as reduction in bacterial growth incubated for 24 hrs by CLSI broth microdilution method
- Format: functional
- study.conditions: Escherichia coli, ATCC 25922, 24 h, read-out: MIC
quantity.measured: MIC (µg/mL)
Number only, in µg/mL; omit the unit.

For this molecule ( CCCCCCCCOc1c2cc(C[N+](C)(C)CCO)cc1Cc1cc(C[N+](C)(C)CCO)cc(c1OCCCCCCCC)Cc1cc(C[N+](C)(C)CCO)cc(c1OCCCCCCCC)Cc1cc(C[N+](C)(C)CCO)cc(c1OCCCCCCCC)C2.[Cl-].[Cl-].[Cl-].[Cl-] ), measured MIC is 32

###

// reported selectivity ratio per item
- test.details: Selectivity index, ratio of CC50 for human HSF cells to MIC for Pseudomonas aeruginosa ATCC 27853
- Assay type: toxicity
- study.conditions: HSF cells
Returns: the value as a bare number; no unit string appended.

- compound: "CCCCCCCCCCCCCC(=O)NCCC[N+](C)(C)Cc1ccccc1.[Cl-] [MIRAMISTIN]"
  selectivity ratio: 0.15
- compound: "CCCCCCCCCC[N+](C)(C)CCCNC(=O)COc1c2cc(C(C)(C)C)cc1Sc1cc(C(C)(C)C)cc(c1OCC(=O)NCCC[N+](C)(C)CCCCCCCCCC)Sc1cc(C(C)(C)C)cc(c1OCC(=O)NCCC[N+](C)(C)CCCCCCCCCC)Sc1cc(C(C)(C)C)cc(c1OCC(=O)NCCC[N+](C)(C)CCCCCCCCCC)S2.[Cl-].[Cl-].[Cl-].[Cl-]"
  selectivity ratio: 0.5

For this compound ( [H]/N=C(\N/C(=N/[H])NCCCCCCNC(=N)NC(=N)Nc1ccc(Cl)cc1)Nc1ccc(Cl)cc1 [CHLORHEXIDINE] ), measured selectivity ratio is 1.37

###

- test.details: Cytotoxicity against human HSF cells assessed as reduction in cell viability incubated for 72 hrs by MTT assay
- Type: cell-based, HSF (VGS)
// reported CC50 at 72 h per item

For this molecule ( [H]/N=C(\N/C(=N/[H])NCCCCCCNC(=N)NC(=N)Nc1ccc(Cl)cc1)Nc1ccc(Cl)cc1 [CHLORHEXIDINE] ), measured CC50 at 72 h is 5.48 µg/mL

For this molecule ( CCCCCCCCCCCCCC(=O)NCCC[N+](C)(C)Cc1ccccc1.[Cl-] [MIRAMISTIN] ), measured CC50 at 72 h is 9.4 µg/mL
